target: human PD-1 (human) (UniProt Q15116)
Sequence (Q15116 25-288): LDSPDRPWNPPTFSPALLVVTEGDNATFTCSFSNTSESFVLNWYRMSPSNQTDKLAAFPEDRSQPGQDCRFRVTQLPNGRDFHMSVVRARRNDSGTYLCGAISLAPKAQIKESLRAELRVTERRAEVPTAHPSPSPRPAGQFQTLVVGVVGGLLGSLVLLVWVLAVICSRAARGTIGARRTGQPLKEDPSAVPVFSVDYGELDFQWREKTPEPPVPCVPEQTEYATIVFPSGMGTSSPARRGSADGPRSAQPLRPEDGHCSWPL
Overview of recorded IFN gamma levels pg/mL (MLR) for various binders
result type: IFN gamma levels pg/mL (MLR) (pg/mL)

>>> recorded_value("variant PD-L2 IgV I12V/I13V/H15Q/T47A/Q82R/V89D Fc fusion (Fc fusion) LFTVTVPKELYVVEQGSNVTLECNFDTGSHVNLGAITASLQKVENDASPHRERATLLEEQLPLGKASFHIPQVQVRDEGQYRCIIIYGDAWDYKYLTLKVKA")
1530
>>> recorded_value("variant PD-L2 IgV H15Q/T47A/Q82R Fc fusion (Fc fusion) LFTVTVPKELYIIEQGSNVTLECNFDTGSHVNLGAITASLQKVENDASPHRERATLLEEQLPLGKASFHIPQVQVRDEGQYRCIIIYGVAWDYKYLTLKVKA")
1320
>>> recorded_value("variant PD-L2 IgV H15Q/S39I/I86T Fc fusion (Fc fusion) LFTVTVPKELYIIEQGSNVTLECNFDTGSHVNLGAITAILQKVENDTSPHRERATLLEEQLPLGKASFHIPQVQVRDEGQYQCIITYGVAWDYKYLTLKVKA")
1420
>>> recorded_value("variant PD-L2 IgV I13V/S67L/Q82R/V89D Fc fusion (Fc fusion) LFTVTVPKELYIVEHGSNVTLECNFDTGSHVNLGAITASLQKVENDTSPHRERATLLEEQLPLGKALFHIPQVQVRDEGQYRCIIIYGDAWDYKYLTLKVKA")
1370
>>> recorded_value("variant PD-L2 IgV H15Q/T47A/Q72H/R76G/I86T Fc fusion (Fc fusion) LFTVTVPKELYIIEQGSNVTLECNFDTGSHVNLGAITASLQKVENDASPHRERATLLEEQLPLGKASFHIPHVQVGDEGQYQCIITYGVAWDYKYLTLKVKA")
1600
>>> recorded_value("variant PD-L2 IgV E59G/Q82R Fc fusion (Fc fusion) LFTVTVPKELYIIEHGSNVTLECNFDTGSHVNLGAITASLQKVENDTSPHRERATLLEGQLPLGKASFHIPQVQVRDEGQYRCIIIYGVAWDYKYLTLKVKA")
1510
>>> recorded_value("variant PD-L2 IgV I13V/H15Q/E44D/V89D Fc fusion (Fc fusion) LFTVTVPKELYIVEQGSNVTLECNFDTGSHVNLGAITASLQKVDNDTSPHRERATLLEEQLPLGKASFHIPQVQVRDEGQYQCIIIYGDAWDYKYLTLKVKA")
1380
>>> recorded_value("variant PD-L2 IgV I13V/H15Q/Q82R Fc fusion (Fc fusion) LFTVTVPKELYIVEQGSNVTLECNFDTGSHVNLGAITASLQKVENDTSPHRERATLLEEQLPLGKASFHIPQVQVRDEGQYRCIIIYGVAWDYKYLTLKVKA")
1430
>>> recorded_value("variant PD-L2 IgV Q82R/V89D Fc fusion (Fc fusion) LFTVTVPKELYIIEHGSNVTLECNFDTGSHVNLGAITASLQKVENDTSPHRERATLLEEQLPLGKASFHIPQVQVRDEGQYRCIIIYGDAWDYKYLTLKVKA")
1620
>>> recorded_value("variant PD-L2 IgV N24D Fc fusion (Fc fusion) LFTVTVPKELYIIEHGSNVTLECDFDTGSHVNLGAITASLQKVENDTSPHRERATLLEEQLPLGKASFHIPQVQVRDEGQYQCIIIYGVAWDYKYLTLKVKA")
1980
